Just for reference, the supplement of paper PMC11061612 is where these values come from.

- System: BPH-1 (Non-Cancerous);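 further: after 72 h of two-drug dosing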
- ASSAY: Bliss excess, mean over the matrix (fraction); higher = more synergy
Tag: fulfilled if measured Bliss excess is not below -0.009, not fulfilled if it is.

See these solved cases before continuing.
COMPOUND | CATEGORY_LABEL
NC1(C(=O)N[C@@H](CCO)c2ccc(Cl)cc2)CCN(c2ncnc3[nH]ccc23)CC1 [Capivasertib] + CCN(CCO)CCCOc1ccc2c(Nc3cc(CC(=O)Nc4cccc(F)c4)[nH]n3)ncnc2c1 [AZD2811] (first compound max 10 µM, 7x7, partner max 1 µM) | fulfilled
COc1cccc(OCCCN)c1-c1cc(Nc2cnc(C#N)cn2)n[nH]1 [Prexasertib] + Cc1cc2ncnn2cc1Nc1ncc2c(n1)n(C1CCOCC1)c(=O)n2C [AZD7648] (first compound max 1 µM, 7x7, partner max 10 µM) | fulfilled
NC1(C(=O)N[C@@H](CCO)c2ccc(Cl)cc2)CCN(c2ncnc3[nH]ccc23)CC1 [Capivasertib] + Cn1cnc2c(F)c(Nc3ccc(Br)cc3Cl)c(C(=O)NOCCO)cc21 [Selumetinib] (first compound max 10 µM, 7x7, partner max 10 µM) | not fulfilled
CC(=O)c1c(C)c2cnc(Nc3ccc(N4CCNCC4)cn3)nc2n(C2CCCC2)c1=O [Palbociclib] + CC1(C)CCC(CN2CCN(c3ccc(C(=O)NS(=O)(=O)c4ccc(NCC5CCOCC5)c([N+](=O)[O-])c4)c(Oc4cnc5[nH]ccc5c4)c3)CC2)=C(c2ccc(Cl)cc2)C1 [Venetoclax] (first compound max 10 µM, 7x7, partner max 1 µM) | not fulfilled
COc1nnc2ccc(N3CCC(c4ccc(OCCN5CCN(C)C(=O)[C@H]5C)cc4)CC3)nn12 [AZD5153] + Cn1cnc2c(F)c(Nc3ccc(Br)cc3Cl)c(C(=O)NOCCO)cc21 [Selumetinib] (first compound max 1 µM, 7x7, partner max 10 µM) | not fulfilled

--- query ---
Identify whether the reported Bliss excess of the following compound is -0.009 or greater: Cn1cnc2c(F)c(Nc3ccc(Br)cc3Cl)c(C(=O)NOCCO)cc21 [Selumetinib] + CC(C)n1c(=O)n(C)c2cnc3cc(F)c(-c4ccc(OCCCN5CCCCC5)nc4)cc3c21 [AZD1390] (first compound max 10 µM, 7x7, partner max 0.3 µM)
fulfilled

###

Form field: combination Emax (one value per entry).
- System: YAPC (Pancreatic Carcinoma)
- ASSAY: combination Emax (second highest fraction inhibited in the dose matrix, 72 h); higher = more inhibition; extreme values may be limits of the assay
Note: the reply should be a number with no unit written.

COMPOUND | MEASUREMENT_LABEL | OBS_VALUE
Cc1c2c(nn1C)CSCc1cc(n(C)n1)CSc1cc(c3ccccc3c1)OCCCc1c(C(=O)O)n(C)c3c-2c(Cl)ccc13 [AZD5991] + CS(=O)(=O)CCNCc1ccc(-c2ccc3ncnc(Nc4ccc(OCc5cccc(F)c5)c(Cl)c4)c3c2)o1 [Lapatinib] (first compound max 1 µM, 7x7, partner max 10 µM) | combination Emax | 0.186
O=C(c1cc(Cc2n[nH]c(=O)c3ccccc23)ccc1F)N1CCN(C(=O)C2CC2)CC1 [Olaparib] + Cc1c2c(nn1C)CSCc1cc(n(C)n1)CSc1cc(c3ccccc3c1)OCCCc1c(C(=O)O)n(C)c3c-2c(Cl)ccc13 [AZD5991] (first compound max 10 µM, 7x7, partner max 1 µM) | combination Emax | 0.104

Field: next compound
Look up combination Emax: NC1(C(=O)N[C@@H](CCO)c2ccc(Cl)cc2)CCN(c2ncnc3[nH]ccc23)CC1 [Capivasertib] + COc1nnc2ccc(N3CCC(c4ccc(OCCN5CCN(C)C(=O)[C@H]5C)cc4)CC3)nn12 [AZD5153] (first compound max 10 µM, 7x7, partner max 1 µM)
0.309
